Where do these numbers come from? They come from PubChem BioAssay (NCI).

tested on: HOP-18 NSCLC; experiment: NCI tumour cell line growth inhibition, 48 h
metric: TGI

Data request: Give its TGI value. Item: "CCOC(=O)/C(O)=C/c1cc(OC)cc(=O)o1"
Data returned: > 100 µM

Data request: Again, but for "NC1CCCCC1.[O]=[Ge].[O]=[Ge].[O]=[Ge][OH].[O]=[Ge][OH]"
Data returned: > 100 µM

Data request: Try the compound "Cc1ccc(C(C)(C)C[P+](C)(c2ccccc2)c2ccccc2)cc1"
Data returned: > 47.8 µM

Data request: Another: "O=C(Nc1cccs1)c1c(O)[nH]c(=S)[nH]c1=O"
Data returned: > 100 µM

Data request: Similarly, COC(=O)C1C(O)CC(c2ccccn2)N(Cc2ccccc2)C1c1ccccn1 (configuration not stated) ?
Data returned: > 100 µM

Data request: Next compound: COc1ccccc1/C=C1\CCC(CCN(C)C)(C2=CCCC2)C1=O (configuration not stated)
Data returned: 85.3 µM

Data request: Param item: O=C(O)C1C2CCC(O2)C1C(=O)N1CCCCC1 (configuration not stated)
Data returned: 36.5 µM

Data request: Now the compound OCC1OC(n2cnc3cncnc32)C(O)C1O (configuration not stated)
Data returned: 8.15 µM

Data request: Subsequent entry: "Clc1ccc(Cc2nc3ccccc3s2)c(Cl)c1"
Data returned: 31.4 µM

Data request: Moving on to "Oc1cc(O)c(Oc2cccc(O)c2O)c(O)c1"
Data returned: > 100 µM

Data request: Next: CC1CCP(=O)(c2ccccc2)c2ccccc21 (configuration not stated)
Data returned: > 100 µM

Data request: // next record "O=Cc1ccccc1OCCOc1cc(OCCOc2ccccc2C=O)c(OCCOc2ccccc2C=O)cc1OCCOc1ccccc1C=O"
Data returned: > 100 µM

* * *

Answer each item with its documented GI50.
system: BT-549 breast; assay: NCI tumour cell line growth inhibition, 48 h

Data request: Reported GI50 for BT-549 breast, given Clc1ccc(N2N=C(c3cccc(Nc4ccncc4)c3)CC2c2ccc3c(c2)OCO3)cc1 (stereo not drawn) ?
Data returned: 4.92 µM

Data request: // same read-out, input: "O=C1c2ccc([N+](=O)[O-])cc2-c2c1c1ccccc1c(=O)n2CCCNCCCNCCCn1c2c(c3ccc([N+](=O)[O-])cc3c1=O)C(=O)c1ccccc1-2"
Data returned: 4.91 µM

Data request: "COc1ccc2c(c1)/C(=C\c1cccnc1)C(=O)N2" ?
Data returned: 13.3 µM

* * *

Record form. Attribute: TGI. Fill in for each entry.
tested on: HOP-92 NSCLC; assay: NCI tumour cell line growth inhibition, 48 h
A number alone suffices; assume µM.

Data request: Test system HOP-92 NSCLC; read-out TGI; what value for CC[N+]1(C)CCC(O)(/C=C/c2ccc(OC)cc2)C(C(=O)/C=C/c2ccc(OC)cc2)C1 (centres undefined) ?
Data returned: 34.5

Data request: Another compound: "CCOC(=O)c1c(CN2CCNCC2)nc2ccccc2c1-c1ccccc1"
Data returned: 17.7

Data request: And the next one, "C[C@H](NC(=O)[C@@H]1CSSC[C@@H](NC(=O)c2nc3ccccc3cc2O)C(=O)NCC(=O)N1C)c1ccccc1" ?
Data returned: 18.6

Data request: What do you get for "COc1cc(/C=C\c2ccc(C)cc2)cc(OC)c1OC" ?
Data returned: 4.13

Data request: Proceed to "Cc1ccc(S(=O)(=O)NCCNC2=CC(=O)c3nc4ccccc4c4ccnc2c34)cc1"
Data returned: 55.7

Data request: Then this compound: "CN1CCN(c2ccc(NC(=O)c3nc4ccc5[nH]ncc5c4c4c3CCCC4)cc2C(F)(F)F)CC1"
Data returned: 1.34

Data request: Can you check "CN(C)CCNC(=O)c1ccc(NCCCN(C)CCCNc2ccc3c(=O)n(CCN(C)C)c(=O)n4c5ccccc5c(=O)c2c34)c2c(=O)c3ccccc3[nH]c12" next?
Data returned: 2.92

Data request: Please do the same for "O=[N+]([O-])c1c(Br)cc(Br)c2c1Nc1c(ccc(Cl)c1Cl)S2" as well.
Data returned: 34.3

* * *

system: A498 renal; test: NCI tumour cell line growth inhibition, 48 h
metric: TGI

Data request: API: value(readout= TGI, system= A498 renal, query= "Cc1ccc(S(=O)(=O)NCCNC2=CC(=O)c3nc4ccccc4c4ccnc2c34)cc1" )
Data returned: 53.1 µM

Data request: Repeat with "CCCc1c(CC)c(=N)c2ccccc2n1C"
Data returned: > 100 µM

Data request: Ok, now "O=[N+]([O-])c1ccc2nc(-c3ccccn3)c(-c3ccccn3)nc2c1"
Data returned: > 100 µM

Data request: Same question, "FC(F)(F)c1cc(-c2nnc3n2N=C(N2CCCC2)CS3)cc(C(F)(F)F)c1" this time
Data returned: > 50 µM

Data request: Field entry: "N#CC(C#N)=C1C(C#N)=C(N)NC12OCCO2"
Data returned: > 100 µM

Data request: Also need "Nc1cccc2c1C(=O)c1cccc(N)c1C2=O" , thanks.
Data returned: > 100 µM

Data request: Again, but for "c1ccc(CCNCc2ccco2)nc1"
Data returned: > 100 µM

Data request: Now give it for "CCC(=O)O[C@H]1CC[C@H]2[C@@H]3CC[C@H]4CC(=O)[C@H](C)C[C@]4(C)[C@H]3CC[C@]12C" too.
Data returned: > 100 µM

Data request: // same read-out, input: "C1C[OH+]CC[OH+]CCNCC[OH+]CC[OH+]CCN1.[Cl-].[Pt+4]"
Data returned: > 100 µM

Data request: Also check CC(=O)O[C@@H]1C[C@@]23C[C@@]24CC[C@H](OC2OCC(O)C(O)C2O)C(C)(C)[C@@H]4CC=C3[C@]2(C)C[C@@H]3OC4(C[C@@H](C)[C@@H]3[C@@]12C)OC(O)[C@@]1(C)O[C@@H]41 (stereo not given in full)
Data returned: > 100 µM

Data request: Note, next up: "Oc1cc(O)c(Oc2cccc(O)c2O)c(O)c1"
Data returned: > 100 µM

Data request: # repeat for "CCc1n(Cc2ccc3ccccc3n2)cc[n+]1Cc1ccc2ccccc2n1"
Data returned: 9.38 µM

Data request: Here is the next molecule: "O=C(Nc1ccc(F)cc1)c1ccc(NC2=C(Cl)C(=O)N(Cc3ccccc3)C2=O)cc1"
Data returned: 31.9 µM

Data request: # repeat for "O=C(O)COc1ccc(O)c2c1C(=O)CCCC2=O"
Data returned: > 100 µM

Data request: Now consider "CCCCCCCCCCCCCCN" .
Data returned: > 100 µM

* * *

test system: MALME-3M melanoma; experiment: NCI tumour cell line growth inhibition, 48 h
I'd be grateful if you could share measured GI50 for these entries.

Data request: Entry under review: "O=C([CH-]C(=O)c1ccccc1)c1ccccc1.O=C([CH-]C(=O)c1ccccc1)c1ccccc1.O=C([CH-]C(=O)c1ccccc1)c1ccccc1.[Nd+3].[OH3+]" . Reported GI50?
Data returned: 9.41 µM

Data request: What about this molecule? "COc1ccc(Nc2ncc(Br)c(NCCCNC(=O)C3CCC3)n2)cc1"
Data returned: 24.6 µM

Data request: // next record "COc1cc(CCN)c2c(c1OC)SSSSS2"
Data returned: 2.08 µM

Data request: Repeat for the following molecule: "O=C1C(c2c[nH]c3ccccc23)=C(c2c[nH]c3ccccc23)C(=O)N1O"
Data returned: > 25 µM

Data request: And "COc1ccc(N2Cc3cnc(Nc4ccccc4)nc3N([C@@H]3CC[C@@H](O)C3)C2=O)cc1" ?
Data returned: 6.89 µM

* * *

test system: HT29 colon; experiment: NCI tumour cell line growth inhibition, 48 h
Exercise: for every item that follows, state its recorded TGI.
Respond with the bare value in µM.

Data request: Query (compound): "CCCCc1c2c(nc3c1CCc1cc4cc5c(nc4nc1-3)-c1nc3c(c(CCCC)c1CC5)CCCC3)CCCC2" ; field requested: TGI
Data returned: 31.5

Data request: What do you get for "O=C(c1ccc2ccccc2c1)c1c(C(F)(F)F)n([O-])c2cc(F)c(F)cc2[n+]1=O" ?
Data returned: 5.29

* * *

test system: HCT-15 colon; assay: NCI tumour cell line growth inhibition, 48 h
metric: TGI

Data request: Query (compound): "Cc1ccccc1-n1c(C)nc2c1C(=O)c1ccccc1C2=O" ; field requested: TGI
Data returned: > 100 µM

Data request: # iterate: "Cc1ccc(/C(=N\N=C(N)N)c2ccccc2)cc1"
Data returned: 11.5 µM

Data request: Try this compound too: "C/C(=N\NC(=S)N1CCCCC1)c1cccc(C)n1"
Data returned: 21.6 µM

Data request: Note, next up: "C[C@@H](O)C(=O)N1[C@@H]2CC3CC[C@]2(CS1(=O)=O)C3(C)C"
Data returned: > 100 µM

Data request: Again, but for "O=C([CH-]C(=O)c1ccccc1)c1ccccc1.O=C([CH-]C(=O)c1ccccc1)c1ccccc1.O=C([CH-]C(=O)c1ccccc1)c1ccccc1.[Nd+3].[OH3+]"
Data returned: 53.6 µM

Data request: Now this one: "COc1nc(N(C)C)nc2c1n(C)c[n+]2C"
Data returned: > 100 µM

Data request: Another compound: "COc1ccc2c(c1)C(=O)c1c-2n(CCCN=[N+]=[N-])c(=O)c2cc(N(C)C)ccc12"
Data returned: > 100 µM

Data request: # iterate: COc1cccc(CC(C)NCC(O)c2ccc(O)c(O)c2)c1 (stereo not given)
Data returned: > 100 µM

Data request: Can you handle "C[C@H](NC(=O)[C@@H]1CSSC[C@@H](NC(=O)c2nc3ccccc3cc2O)C(=O)NCC(=O)N1C)c1ccccc1" next?
Data returned: 9.62 µM

Data request: CC(=O)Nc1ccc(C(=O)NN2C(=O)C(Cl)C2c2ccc([N+](=O)[O-])cc2)cc1 (stereo not given) , same question.
Data returned: > 100 µM

Data request: And then "COc1cc(/C=C2\CCC/C(=C\c3cc(OC)c(O)c(OC)c3)C2=O)cc(OC)c1O" , what is it?
Data returned: 3.45 µM

Data request: How about this compound: O=CC(O)C(O)C(O)C(O)C(=O)NCCCCCCCCCCCCNC(=O)C(O)C(O)C(O)C(O)C=O (stereo not given)
Data returned: > 100 µM

Data request: Same for "COc1ccc(-c2nc3sc(-c4ccc(Cl)cc4)cn3n2)cc1"
Data returned: > 50 µM

Data request: Ok, now "CO/C(=N\N=C\c1cccc(Cl)c1)c1ccncc1"
Data returned: > 10 µM

Data request: Input "O=C(Nc1cccs1)c1c(O)[nH]c(=S)[nH]c1=O"
Data returned: > 100 µM

Data request: Can you check "COc1cc(CCN)c2c(c1OC)SSSSS2" next?
Data returned: 1.44 µM

Data request: Similarly, "C/C(=C\c1ccccn1)c1ccccn1" ?
Data returned: > 100 µM

Data request: Param item: COC(=O)C1CCC(=O)N1C(=O)Cc1ccc(OC)cc1 (stereo not given)
Data returned: > 100 µM

Data request: Next record, please: "COc1ccc(NC(=O)C(=O)Cc2nc3ccc([N+](=O)[O-])cc3[nH]c2=O)c(OC)c1"
Data returned: > 100 µM

Data request: Do the same for CC(=O)O[C@@H]1C[C@@]23C[C@@]24CC[C@H](OC2OCC(O)C(O)C2O)C(C)(C)[C@@H]4CC=C3[C@]2(C)C[C@@H]3OC4(C[C@@H](C)[C@@H]3[C@@]12C)OC(O)[C@@]1(C)O[C@@H]41 (stereo not given in full) please
Data returned: 96.7 µM
